Listing of entries alongside the reported Ki.
Molecular target: Trypsin (Homo sapiens, UniProt P07477+P07478+P35030)
Test: Binding affinity to trypsin
Format: protein assay
Your answer is read as µM, so omit the unit and give the number.

// known answers, use as guide
- given_smiles: "N=C(N)c1ccc2[nH]c(-c3cc(CC(=O)O)cc(-c4cccc([N+](=O)[O-])c4)c3O)cc2c1"
  unit_info: "µM"
  result_value: 0.4
- given_smiles: "N=C(N)c1ccc2[nH]c(-c3cc(CC(=O)O)cc(-c4cccc([N+](=O)[O-])c4)c3O)nc2c1"
  unit_info: "µM"
  result_value: 11

// switching to the query compound
Supply reported Ki belonging to this compound: Nc1ccc2[nH]c(-c3cc(CC(=O)O)cc(-c4cccc([N+](=O)[O-])c4)c3O)cc2n1
120
